Biological target: histamine-3 receptors (H3 receptor) (Rattus norvegicus)
Construct: from tissue; host or cells: male Sprague-Dawley rat brain cortex membranes
Sequence (Q9QYN8 whole entry): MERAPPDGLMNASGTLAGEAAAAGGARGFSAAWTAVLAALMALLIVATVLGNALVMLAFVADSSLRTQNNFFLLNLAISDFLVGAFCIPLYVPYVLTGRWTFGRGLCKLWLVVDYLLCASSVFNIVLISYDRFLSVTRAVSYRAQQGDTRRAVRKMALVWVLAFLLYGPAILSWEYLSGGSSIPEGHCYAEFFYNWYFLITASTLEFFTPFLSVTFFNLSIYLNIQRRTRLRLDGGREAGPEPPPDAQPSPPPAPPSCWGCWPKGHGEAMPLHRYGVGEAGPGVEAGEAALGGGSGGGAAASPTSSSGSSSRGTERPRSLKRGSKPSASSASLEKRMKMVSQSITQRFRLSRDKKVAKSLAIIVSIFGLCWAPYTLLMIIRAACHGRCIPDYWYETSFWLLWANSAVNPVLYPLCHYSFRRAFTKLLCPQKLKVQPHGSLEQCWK
Experiment: (3H)-N-α-methylhistamine binding to rat cortical membranes
Settings: male Sprague-Dawley rat brain cortical membranes; (3H)-N-α-methylhistamine ~0.6 nM; 30 minutes at 25° C.; Cheng-Prusoff equation; read-out: Ki
Readout name: pKi
Scale for pKi: -log10 of concentration given in mol/L; no unit attached.

{"Entry smiles": "CCCN(CC)CCc1cc2cc(-c3ccc(C(=O)N4CCOCC4)cn3)ccc2o1", "Numeric value": 7.10}
{"Entry smiles": "CN(CCc1cc2cc(-c3ccc(C#N)cc3)ccc2o1)C(C)(C)C", "Numeric value": 7.22}
{"Entry smiles": "O=C(c1ccc(-c2ccc3oc(CCN4CCCC4)cc3c2)nc1)N1CCOCC1", "Numeric value": 7.76}
{"Entry smiles": "CCN(CCc1cc2cc(-c3ccc(C#N)cc3)ccc2o1)C(C)C", "Numeric value": 7.35}
{"Entry smiles": "CC(C)CN(C)CCc1cc2cc(-c3ccc(C#N)cc3)ccc2o1", "Numeric value": 6.74}
{"Entry smiles": "O=C(c1ccc(-c2ccc3oc(CCN4CCCCC4)cc3c2)cc1)N1CCOCC1", "Numeric value": 7.93}

Query (compound): CC(C)N(C)CCc1cc2cc(-c3ccc(C#N)cc3)ccc2o1 ; field requested: pKi
7.11

Okay, and CCN(CC)CCc1cc2cc(-c3ccc(C#N)cc3)ccc2o1 ?
7.31

Would you mind doing Cc1cc(C(=O)c2ccc3oc(CCN4CCC[C@H]4C)cc3c2)ccc1Cl as well?
8.22
